- system.name: β2-adrenergic receptor (B2-AR) (Homo sapiens)
- Construct: expressed in transfected cells
- Sequence (P07550 whole entry): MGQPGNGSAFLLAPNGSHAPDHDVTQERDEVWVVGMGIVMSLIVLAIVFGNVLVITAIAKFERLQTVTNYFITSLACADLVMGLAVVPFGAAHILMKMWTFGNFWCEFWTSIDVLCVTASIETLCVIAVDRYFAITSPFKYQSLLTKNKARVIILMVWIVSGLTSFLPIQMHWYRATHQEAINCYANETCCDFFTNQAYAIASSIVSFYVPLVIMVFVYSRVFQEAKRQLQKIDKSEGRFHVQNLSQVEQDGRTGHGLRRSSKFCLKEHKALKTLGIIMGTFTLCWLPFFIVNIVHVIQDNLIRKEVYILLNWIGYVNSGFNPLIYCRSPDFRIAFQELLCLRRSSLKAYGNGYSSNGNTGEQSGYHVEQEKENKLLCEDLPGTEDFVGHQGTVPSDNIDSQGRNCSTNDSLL
- method.summary: cAMP Gs dynamic HTRF assay, cells expressing β2-adrenergic receptor
- Assay type: cell-based
- run.conditions: CHO-K1 (HitHunter) cells; read-out: Average pEC50 [Receptor subtype: B2-AR; Cell type: CHO-K1 (HitHunter)] (converted)
quantity: EC50

Some solved cases for reference:
>  <given.smiles>
CC(C)(C)NC[C@@H](O)c1cccc2c(C#N)ccnc12

>  <EC50>
> 1000 nM

$$$$
>  <given.smiles>
Cc1nc([C@@H](O)CNC(C)(C)C)cnc1N

>  <EC50>
> 1000 nM

$$$$
>  <given.smiles>
CC(C)(C)NC[C@H](O)c1cccc2ccc(C#N)nc12

>  <EC50>
< 10 nM

$$$$

Alright, here's another compound for you.
Would you mind telling me what EC50 value was observed for CC(C)(C)NC[C@H](O)c1cccc2c1C(F)(F)C(=O)N2 ?
< 10 nM

###

Listing of entries alongside the reported EC50.
- system.name: β1-adrenergic receptor (B1-AR) (Homo sapiens)
- Construct: expressed in transfected cells
- method.summary: cAMP Gs dynamic HTRF assay, cells expressing β1-adrenergic receptor
- Assay type: cell-based
- run.conditions: CHO-K1 (HitHunter) cells; read-out: Average pEC50 [Receptor subtype: B1-AR; Cell type: CHO-K1 (HitHunter)] (converted)

Some solved cases for reference:
>  <molecule>
Cc1cc2c([C@H](O)CNC(C)(C)C)cccc2[nH]c1=O

>  <EC50>
0.1 to 1 µM

$$$$
>  <molecule>
CC(C)(C)NC[C@H](O)c1cccc2ccc(C(F)(F)F)nc12

>  <EC50>
< 0.01 µM

$$$$
>  <molecule>
Cc1nc(N)c(C#N)cc1[C@@H](O)CNC(C)(C)C

>  <EC50>
> 1 µM

$$$$
>  <molecule>
CC1(NC[C@H](O)c2cc(F)cc3[nH]ncc23)CCC1

>  <EC50>
< 0.01 µM

$$$$
>  <molecule>
CC(C)(C)NC[C@@H](O)c1cccc2ccc(C(F)(F)F)nc12

>  <EC50>
0.1 to 1 µM

$$$$
>  <molecule>
CC(C)CNC[C@H](O)c1cccc2[nH]c(=O)ccc12

>  <EC50>
0.01 to 0.1 µM

$$$$
>  <molecule>
CC(C)(C)NC[C@H](O)c1ccc2[nH]ncc2c1

>  <EC50>
> 1 µM

$$$$
>  <molecule>
CC(C)(C)NC[C@H](O)c1ccc(F)c2[nH]c(=O)ccc12

>  <EC50>
< 0.01 µM

$$$$

Would you mind telling me what EC50 value was observed for CC(C)(C)NCC(O)c1cccc2ccccc12 (stereo not shown) ?
< 0.01 µM

How about CC(C)(C)NC[C@H](O)c1ccc2c(n1)CCC2 ?
0.1 to 1 µM

###

Listing of entries alongside the reported EC50.
- system.name: β1-adrenergic receptor (B1-AR) (Homo sapiens, UniProt P08588)
- Construct: expressed in transfected cells
- Sequence (P08588 whole entry): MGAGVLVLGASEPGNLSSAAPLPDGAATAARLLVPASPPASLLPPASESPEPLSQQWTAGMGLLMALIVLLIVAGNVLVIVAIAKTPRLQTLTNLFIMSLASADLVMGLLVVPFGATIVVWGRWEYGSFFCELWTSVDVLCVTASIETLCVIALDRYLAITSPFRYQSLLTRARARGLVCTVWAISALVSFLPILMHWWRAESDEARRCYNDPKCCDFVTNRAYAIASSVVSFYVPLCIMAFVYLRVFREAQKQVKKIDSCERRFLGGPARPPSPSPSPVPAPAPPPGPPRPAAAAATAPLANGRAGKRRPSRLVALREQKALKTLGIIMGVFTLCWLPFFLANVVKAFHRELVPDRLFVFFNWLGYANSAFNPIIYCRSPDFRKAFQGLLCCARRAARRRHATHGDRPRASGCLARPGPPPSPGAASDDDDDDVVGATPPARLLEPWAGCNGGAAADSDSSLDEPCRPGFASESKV
- method.summary: cAMP Gs dynamic HTRF assay, cells expressing β1-adrenergic receptor
- Format: cell-based
- run.conditions: CHO-K1 (HitHunter) cells; read-out: Average pEC50 [Receptor subtype: B1-AR; Cell type: CHO-K1 (HitHunter)] (converted)

Some solved cases for reference:
>  <compound>
Cc1nc(N)c(Cl)cc1[C@@H](O)CNC(C)(C)C

>  <system.name>
β1-adrenergic receptor (B1-AR) (Homo sapiens, UniProt P08588)

>  <result>
10 to 100 nM

$$$$
>  <compound>
Cc1cc(C(O)CNC(C)(C)C)nnc1N (centres unmarked)

>  <system.name>
β1-adrenergic receptor (B1-AR) (Homo sapiens, UniProt P08588)

>  <result>
> 1000 nM

$$$$
>  <compound>
CC(C)(C)NC[C@@H](O)c1cccc(N)n1

>  <system.name>
β1-adrenergic receptor (B1-AR) (Homo sapiens, UniProt P08588)

>  <result>
100 to 1000 nM

$$$$
>  <compound>
Cc1noc2cccc([C@@H](O)CNC(C)(C)C)c12

>  <system.name>
β1-adrenergic receptor (B1-AR) (Homo sapiens, UniProt P08588)

>  <result>
100 to 1000 nM

$$$$
>  <compound>
COc1cc([C@@H](O)CNC(C)(C)C)c2cn[nH]c2c1

>  <system.name>
β1-adrenergic receptor (B1-AR) (Homo sapiens, UniProt P08588)

>  <result>
100 to 1000 nM

$$$$
>  <compound>
CC(C)(C)NC[C@H](O)c1cnc2[nH]cnc2c1

>  <system.name>
β1-adrenergic receptor (B1-AR) (Homo sapiens, UniProt P08588)

>  <result>
100 to 1000 nM

$$$$
>  <compound>
CC(C)(C)NC[C@H](O)c1cc(F)cc2cccnc12

>  <system.name>
β1-adrenergic receptor (B1-AR) (Homo sapiens, UniProt P08588)

>  <result>
< 10 nM

$$$$
>  <compound>
CC(C)(C)NC[C@@H](O)c1cccc(O)n1

>  <system.name>
β1-adrenergic receptor (B1-AR) (Homo sapiens, UniProt P08588)

>  <result>
> 1000 nM

$$$$

Give the reported EC50 for Cc1nc2cc([C@@H](O)CNC(C)(C)C)ccc2[nH]1 (system: β1-adrenergic receptor (B1-AR) (Homo sapiens, UniProt P08588)).
> 1000 nM

How about CC(C)(C)NC[C@@H](O)c1ccc2ccc(C(F)(F)F)cc2n1 ?
> 1000 nM

How about CC(C)(C)NC[C@H](O)c1cc(C#N)cc2[nH]ncc12 ?
100 to 1000 nM
